Known interaction data at Target Concentration 300 of a selection of sequences
Study Target: CHIP (Homo sapiens)
Construct: N-term truncated CHIP (also known as STUB1, Uniprot ID: Q9UNE7, residues 23-303); made in house; host or cells: E. coli BL21 CodonPlus
Sequence (Q9UNE7 23-303): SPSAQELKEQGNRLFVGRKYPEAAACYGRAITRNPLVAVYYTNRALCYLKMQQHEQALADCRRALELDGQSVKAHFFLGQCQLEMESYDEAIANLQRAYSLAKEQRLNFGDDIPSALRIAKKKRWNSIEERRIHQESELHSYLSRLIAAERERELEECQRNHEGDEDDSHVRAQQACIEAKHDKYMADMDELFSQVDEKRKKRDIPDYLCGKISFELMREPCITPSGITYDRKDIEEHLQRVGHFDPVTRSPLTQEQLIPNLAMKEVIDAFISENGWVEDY
Experiment Summary: Naive Library Presenter Screening (phage, NGS), CHIP
Format: binding
Test Context: CHIP clusters (C83, C84); target concentration 300 nM
Numbered stars: 1 amine (or outer) side, 2 acyl side, 3 side chain; on linkers, the order of the positions; unused ones are H or OH. Bridge positions count the residues as written; N and C are the ends. Ends that are not written are not given here. Phenylene(1,4-NHCOCH2)2 = O=C(C[*:1])Nc1ccc(NC(=O)C[*:2])cc1
Lab note: jot the number down without any unit.

Example entries begin here.
DPAFVRCQFAAASCHTI (linker 7-14 via Phenylene(1,4-NHCOCH2)2 (inferred)) : 22
DPAQDNCHYAAHICMVD (DPAQDNCHYAAHICMVD-NH2; linker 7-14 via Phenylene(1,4-NHCOCH2)2 (inferred)) : 47
DPAEYACYHAASICNVD (linker 7-14 via Phenylene(1,4-NHCOCH2)2 (inferred)) : 61
DPAINMCYRAAQICDVD (linker 7-14 via Phenylene(1,4-NHCOCH2)2 (inferred)) : 31
DPAFDRCQWAAALCMMN (linker 7-14 via Phenylene(1,4-NHCOCH2)2 (inferred)) : 13
DPAFWQCQFAAATCAHY (linker 7-14 via Phenylene(1,4-NHCOCH2)2 (inferred)) : 16

Challenge: Could you tell me which interaction data at Target Concentration 300 is on file for DPAFTRCQFAAAVCNFT (linker 7-14 via Phenylene(1,4-NHCOCH2)2 (inferred)) ?
Response given: 6

Challenge: Can you handle DPAFTACQFAAAMCDSS (linker 7-14 via Phenylene(1,4-NHCOCH2)2 (inferred)) next?
Response given: 3

Challenge: Can you handle DPAFWRCQFAAATCEHT (linker 7-14 via Phenylene(1,4-NHCOCH2)2 (inferred)) next?
Response given: 321

Challenge: Can you handle DPAFWSCQFAAATCSHL (linker 7-14 via Phenylene(1,4-NHCOCH2)2 (inferred)) next?
Response given: 6

Challenge: Can you handle DPANHICHYAAHICDVD (DPANHICHYAAHICDVD-NH2; linker 7-14 via Phenylene(1,4-NHCOCH2)2 (inferred)) next?
Response given: 15

Challenge: Can you handle DPAFDACQFAAAMCDHQ (linker 7-14 via Phenylene(1,4-NHCOCH2)2 (inferred)) next?
Response given: 39

Challenge: Can you handle DPAFEYCQWAAATCQMD (linker 7-14 via Phenylene(1,4-NHCOCH2)2 (inferred)) next?
Response given: 43

Challenge: Can you handle DPAFEVCQFAAATCSSN (linker 7-14 via Phenylene(1,4-NHCOCH2)2 (inferred)) next?
Response given: 10

Challenge: Can you handle DPAFFECVRAASICMVD (linker 7-14 via Phenylene(1,4-NHCOCH2)2 (inferred)) next?
Response given: 51

Challenge: Can you handle DPAFEQCQFAAAMCLHH (linker 7-14 via Phenylene(1,4-NHCOCH2)2 (inferred)) next?
Response given: 17
